// values below are reported growth inhibition
procedure.summary: NCI Yeast Anticancer Drug Screen. Data for the wt1 strain (AID 149);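 note: 0% = growth of vehicle-treated wt1 cultures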
experimental.parameters: S. cerevisiae wt1 strain (SPY 50644) growth inhibition; at 1.2 µM; hits give high values
About 79,000 compounds went through this panel and 15% of them were active in at least one assay; those are over-represented in the sample as a whole.
endpoint: growth inhibition (%)

>>> reported_value("CN(Cc1cccc2ccccc12)Cc1cccc2ccccc12")
1
>>> reported_value("CCC1SC(=S)N(c2ccc(Cl)cc2)C1=O (stereo not drawn)")
-2
>>> reported_value("NCC(O)CSCc1ccc(Cl)cc1 (stereo not drawn)")
-3
>>> reported_value("O=C(O)CN(CCNC(=O)OCC1c2ccccc2-c2ccccc21)CCNC(=O)OCC1c2ccccc2-c2ccccc21")
-1
>>> reported_value("Cc1cc(N(CCOS(C)(=O)=O)CCOS(C)(=O)=O)ccc1C=O")
27
>>> reported_value("C#CC1=CC(=O)C(OC)=CC1=O")
-2
>>> reported_value("O=CC(=C(I)I)c1ccccc1")
15
>>> reported_value("O=C1OC(/C=C/c2ccccc2)Sc2ccccc21 (stereo not drawn)")
-3
>>> reported_value("COc1ccc(/C=C2\\CCc3ccccc3C2=O)cc1OC")
-13
>>> reported_value("Oc1ccc(Br)cc1C=Nc1cccc(C(F)(F)F)c1")
-2
>>> reported_value("Cc1cccc(N2CCN(C(=O)/C(=C/c3ccccc3)NC(=O)c3ccccc3)CC2)c1")
-3
>>> reported_value("Cc1nc2ccc(NCCN(C)C)c3c(=O)c4ccccc4n1c23")
26
>>> reported_value("O=c1[nH]cc(F)c(=O)[nH]1")
-1
>>> reported_value("CCc1nc2ccc(N=Nc3c(O)ccc4ccccc34)cc2[nH]1")
14
>>> reported_value("CCC(C)/C(C)=N/NC(N)=O (stereo not drawn)")
0
>>> reported_value("Nc1ccc2cc(Br)c3ccccc3c2c1")
0
>>> reported_value("Cc1ccc2c(/C=C/c3ccc(N(C)C)cc3)ccnc2c1C")
-44
>>> reported_value("O=S(=O)(O)CC[S][Sn]([S]CCS(=O)(=O)O)([c]1ccccc1)[c]1ccccc1")
-25

* * *

procedure.summary: NCI Yeast Anticancer Drug Screen. Data for the wt1 strain (AID 149);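 note: 0% = growth of vehicle-treated wt1 cultures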
experimental.parameters: S. cerevisiae wt1 strain (SPY 50644) growth inhibition; at 3.7 µM; hits give high values
Experimental: Growth inhibition of yeast strains with defined genetic alterations is measured as a screen for potential anti-cancer activity. Selected strains with alterations in DNA damage repair or cell cycle control were exposed to compounds and growth inhibition was measured relative to vehicle treated controls. The strain used in this assay is wt1
This is part of a sample that, as a whole, favours compounds with a hit. Of some 79,000 tested, about 15% had one in any assay. Starred links: 1 amine or outer side, 2 acyl side, 3 side chain; linkers in the order of their positions; H or OH if unused. Positions of bridges follow the written chain, without caps; N, C: chain ends. Non-standard residues stand in square brackets, D forms with d. Residues, ends and D or L forms follow the SMILES beside them. Chains are numbered I, II in the order given. Actinocin(9to1) = Cc1c2oc3c(C)ccc(C(=O)[*:1])c3nc-2c(C(=O)[*:2])c(N)c1=O; aThr = C[C@H](O)[C@H](N)C(=O)O; NMeV = CN[C@H](C(=O)O)C(C)C; Sar = CNCC(=O)O
endpoint: growth inhibition (%)

>>> reported_value("CC(=O)O/N=C/c1c2ccccc2cc2ccccc12")
2
>>> reported_value("COC1=C(N=[N+]=[N-])C(=O)c2ncccc2C1=O")
6
>>> reported_value("CCC(C)C(=O)OCC(=O)c1ccc(-c2ccccc2)cc1 (stereo unspecified)")
-2
>>> reported_value("Cc1c2oc3c(C)ccc(C(=O)N[C@@H]4C(=O)N[C@H](C(C)C)C(=O)N5CCC[C@H]5C(=O)N(C)CC(=O)N(C)[C@@H](C(C)C)C(=O)O[C@H]4C)c3nc-2c(C(=O)N[C@@H]2C(=O)N[C@H](C(C)C)C(=O)N3CCC[C@H]3C(=O)N(C)CC(=O)N(C)[C@@H](C(C)C)C(=O)O[C@H]2C)c(N)c1=O (I: [aThr][dV]P[Sar][NMeV] / II: [aThr][dV]P[Sar][NMeV]; ester I:1-I:C, II:1-II:C; linker I:N-II:N via Actinocin(9to1))")
19
>>> reported_value("CCN(CC)c1cccc(Nc2nc3ccccc3s2)c1")
10
>>> reported_value("COc1ccc2nc3cccc([N+](=O)[O-])c3c(NCCCO)c2c1")
62
>>> reported_value("O=Cc1ccccc1B(O)O")
-1
>>> reported_value("Cc1ccc2oc(-c3cccc(N)c3)nc2c1")
-4
>>> reported_value("CC[C@]1(O)C[C@H]2CN(CCc3c([nH]c4ccccc34)[C@@](C(=O)OC)(c3cc4c(cc3OC)N(C)[C@H]3[C@@](O)(C(=O)OC)[C@H](OC(C)=O)[C@]5(CC)C=CCN6CC[C@]43[C@@H]65)C2)C1")
-1
>>> reported_value("COc1ccc2c(Cc3c4ccccc4cc4ccccc34)cncc2c1O")
4
>>> reported_value("CCN(CC)CCSc1c2ccccc2nc2cc(NCC(=O)Nc3ccccc3-c3ccccc3NC(=O)CNc3ccc4c(SCCN(CC)CC)c5ccccc5nc4c3)ccc12")
-16
>>> reported_value("O=c1[nH]cc(F)c(=O)[nH]1")
-1
>>> reported_value("Cc1ccc(Nc2n[nH]c(=S)s2)cc1C")
-22
>>> reported_value("O=C1c2ccccc2C2CCC1c1ccccc12 (stereo unspecified)")
-14
>>> reported_value("CCCCCCC(CCl)c1sc(-c2csc(CCNC(=O)OC(C)(C)C)n2)nc1C(=O)OC (stereo unspecified)")
-4
>>> reported_value("CC(C)OC(CCC#N)c1ccc(Cl)cc1 (stereo unspecified)")
-28

* * *

growth inhibition reference
procedure.summary: NCI Yeast Anticancer Drug Screen. Data for the bub3 strain (AID 167)
experimental.parameters: S. cerevisiae bub3 mutant strain, at 100.0 µM, hits give high values
Compounds without any hit were thinned out: in the full panel of roughly 79,000, 15% have a hit.
endpoint: growth inhibition (%)

>>> reported_value("Oc1ccc(Cc2nccc3cc(O)c(O)cc23)cc1O")
79
>>> reported_value("COc1ccc2c(C)cc(N/N=C/c3sccc3C)nc2c1")
82
>>> reported_value("CN(C)c1ccc(/C=C/c2ccnc3ccc4ccccc4c23)cc1")
79

* * *

Overview of reported growth inhibition across a group of molecules:
procedure.summary: NCI Yeast Anticancer Drug Screen. Data for the rad14 strain (AID 159);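 note: 0% = growth of vehicle-treated control cultures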
experimental.parameters: S. cerevisiae rad14 strain growth inhibition; at 1.2 µM; hits give high values
Experimental: Growth inhibition of yeast strains with defined genetic alterations is measured as a screen for potential anti-cancer activity. Selected strains with alterations in DNA damage repair or cell cycle control were exposed to compounds and growth inhibition was measured relative to vehicle treated controls. The strain used in this assay is rad14
This is part of a sample that, as a whole, favours compounds with a hit. Of some 79,000 tested, about 15% had one in any assay. Starred links: 1 amine or outer side, 2 acyl side, 3 side chain; linkers in the order of their positions; H or OH if unused. Positions of bridges follow the written chain, without caps; N, C: chain ends. Non-standard residues stand in square brackets, D forms with d. Residues, ends and D or L forms follow the SMILES beside them. Chains are numbered I, II in the order given. Actinocin(9to1) = Cc1c2oc3c(C)ccc(C(=O)[*:1])c3nc-2c(C(=O)[*:2])c(N)c1=O; aThr = C[C@H](O)[C@H](N)C(=O)O; NMeV = CN[C@H](C(=O)O)C(C)C; Sar = CNCC(=O)O
endpoint: growth inhibition (%)

>>> reported_value("Cc1ccnc(NS(=O)(=O)c2ccc(Nc3c4ccccc4nc4ccccc34)cc2)n1")
10
>>> reported_value("S=C1NC2=C(CSC/C2=C\\c2ccc(Cl)cc2)C(c2ccc(Cl)cc2)N1 (configuration not stated)")
11
>>> reported_value("CN(C)CCNC(=O)c1cccc2nc3c(ccc4ccccc43)nc12")
-2
>>> reported_value("O=C(N/N=C/c1ccc2c(c1)CCC2)c1ccccc1[N+](=O)[O-]")
-10
>>> reported_value("Cc1c2oc3c(C)ccc(C(=O)N[C@@H]4C(=O)N[C@H](C(C)C)C(=O)N5CCC[C@H]5C(=O)N(C)CC(=O)N(C)[C@@H](C(C)C)C(=O)O[C@H]4C)c3nc-2c(C(=O)N[C@@H]2C(=O)N[C@H](C(C)C)C(=O)N3CCC[C@H]3C(=O)N(C)CC(=O)N(C)[C@@H](C(C)C)C(=O)O[C@H]2C)c(N)c1=O (I: [aThr][dV]P[Sar][NMeV] / II: [aThr][dV]P[Sar][NMeV]; ester I:1-I:C, II:1-II:C; linker I:N-II:N via Actinocin(9to1))")
3
>>> reported_value("COc1cc(NCCCCCNC(C)C)c2ncccc2c1Cl")
0
>>> reported_value("CNC(=O)OCc1c(COC(=O)NC)c(C)n(-c2ccc(Cl)c(Cl)c2)c1C")
-38
>>> reported_value("CN(C)c1ccc(/C=C/c2ccnc3ccc4ccccc4c23)cc1")
-5
>>> reported_value("CNc1ccc2[nH]c3ccccc3c2c1")
-3
>>> reported_value("Cc1ccc2nc(N/N=C/c3ccc(C)s3)cc(C)c2c1")
-32
>>> reported_value("CC(C)(C(=O)NN)c1ccccc1")
-1
>>> reported_value("c1cc2ccc3cc4ncccc4c4ccc(c1)c2c34")
1
